settings: rat, microsomes
Starred links: 1 amine or outer side, 2 acyl side, 3 side chain; linkers in the order of their positions; H or OH if unused. Positions of bridges follow the written chain, without caps; N, C: chain ends. Non-standard residues stand in square brackets, D forms with d. Residues, ends and D or L forms follow the SMILES beside them. *: point of attachment. Orn(4R-OH,5R-OCH2CH2NMe3+) = C[N+](C)(C)CCO[C@@H](N[*:3])[C@H](O)C[C@H](N[*:1])C(=O)[*:2]; pTerphenylCO(4''-OnC5H11) = CCCCCOc1ccc(-c2ccc(-c3ccc(C(=O)*)cc3)cc2)cc1; hTyr(3S-OH,4S-OH) = N[C@H](C(=O)O)[C@H](O)[C@@H](O)c1ccc(O)cc1; Pro(3S-OH,4S-Me) = C[C@H]1CN[C@H](C(=O)O)[C@H]1O; Hyp = O=C(O)[C@@H]1C[C@@H](O)CN1
READOUT_KIND: microsomal CLint (µL/min/mg)
Kindly provide the numeric value in µL/min/mg only, without the unit symbol.

Q: Item under review: CCCCCOc1ccc(-c2ccc(-c3ccc(C(=O)N[C@H]4C[C@@H](O)[C@@H](OCC[N+](C)(C)C)NC(=O)[C@@H]5[C@@H](O)[C@@H](C)CN5C(=O)[C@H]([C@@H](C)O)NC(=O)[C@H]([C@H](O)[C@@H](O)c5ccc(O)cc5)NC(=O)[C@@H]5C[C@@H](O)CN5C(=O)[C@H]([C@@H](C)O)NC4=O)cc3)cc2)cc1 [CD101] ({pTerphenylCO(4''-OnC5H11)}-[Orn(4R-OH,5R-OCH2CH2NMe3+)]T[Hyp][hTyr(3S-OH,4S-OH)]T[Pro(3S-OH,4S-Me)]; lactam 1-C) . Reported microsomal CLint?
Ans: 9.6

* * *

Assay: Plasma protein binding, rapid equilibrium dialysis
Assay type: in vitro ADME, chimpanzee
Settings: pH 7.4, read-out: protein bound (converted)
Experimental: Rapid equilibrium dialysis (RED) ([16]) was used to determine cross-species protein binding of CD101 in CD-1 mouse, Sprague-Dawley rat, cynomolgus monkey, chimpanzee, and human plasma. […] The percentage bound was calculated as the difference between 100% and the percentage free (the ratio of the concentration in supernatant to the concentration in plasma).
Starred links: 1 amine or outer side, 2 acyl side, 3 side chain; linkers in the order of their positions; H or OH if unused. Positions of bridges follow the written chain, without caps; N, C: chain ends. Non-standard residues stand in square brackets, D forms with d. Residues, ends and D or L forms follow the SMILES beside them. *: point of attachment. Orn(4R-OH,5R-OCH2CH2NMe3+) = C[N+](C)(C)CCO[C@@H](N[*:3])[C@H](O)C[C@H](N[*:1])C(=O)[*:2]; pTerphenylCO(4''-OnC5H11) = CCCCCOc1ccc(-c2ccc(-c3ccc(C(=O)*)cc3)cc2)cc1; hTyr(3S-OH,4S-OH) = N[C@H](C(=O)O)[C@H](O)[C@@H](O)c1ccc(O)cc1; Pro(3S-OH,4S-Me) = C[C@H]1CN[C@H](C(=O)O)[C@H]1O; Hyp = O=C(O)[C@@H]1C[C@@H](O)CN1
READOUT_KIND: fraction unbound
Reply with just the number.

Q: Which value of fraction unbound has been reported for CCCCCOc1ccc(-c2ccc(-c3ccc(C(=O)N[C@H]4C[C@@H](O)[C@@H](OCC[N+](C)(C)C)NC(=O)[C@@H]5[C@@H](O)[C@@H](C)CN5C(=O)[C@H]([C@@H](C)O)NC(=O)[C@H]([C@H](O)[C@@H](O)c5ccc(O)cc5)NC(=O)[C@@H]5C[C@@H](O)CN5C(=O)[C@H]([C@@H](C)O)NC4=O)cc3)cc2)cc1 [CD101] ({pTerphenylCO(4''-OnC5H11)}-[Orn(4R-OH,5R-OCH2CH2NMe3+)]T[Hyp][hTyr(3S-OH,4S-OH)]T[Pro(3S-OH,4S-Me)]; lactam 1-C) in the records?
Ans: 0.012
